The values you see were collected from paper PMC12136788.

Measured binding signal accompanies every entry in the list below.
target of assay: T1, UNK ZnF1-6 (called full-length) (human, UniProt Q9C0B0 30-357)
T1 sequence: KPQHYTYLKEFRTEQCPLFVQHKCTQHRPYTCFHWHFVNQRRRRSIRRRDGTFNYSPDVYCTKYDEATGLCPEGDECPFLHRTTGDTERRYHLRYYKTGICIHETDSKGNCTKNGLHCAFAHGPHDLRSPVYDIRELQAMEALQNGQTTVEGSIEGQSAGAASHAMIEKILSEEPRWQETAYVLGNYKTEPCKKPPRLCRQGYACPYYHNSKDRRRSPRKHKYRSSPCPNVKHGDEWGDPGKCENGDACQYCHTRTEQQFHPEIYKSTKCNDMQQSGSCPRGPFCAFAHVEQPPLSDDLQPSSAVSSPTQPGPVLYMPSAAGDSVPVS
test protocol: nsRBNS (natural sequence RNA bind-n-seq); RBNS binding buffer (assumed for nsRBNS): 25 mM Tris pH 7.5, 150 mM KCl, 3 mM MgCl2, 0.01% Triton X-100, 500 ug/ml BSA, 20 U/ml SUPERase-In, 4 C; UNK is unkempt and MSI1 is Musashi-1; names of the RNAs are library labels; protein concentration not given here; high values mean tight binding
Whole data set: some 5,800 sequences, median “enrichment r” near 0.68, cut for the highest 2% near 11. The full list was thinned out, with the highest values kept by preference.

binder: ENSG00000107863:be:win_4151|CDS|ENSG00000107863|bound_else_gene|NA|bound_elsewhere_windowed (ssRNA) RNA: GGGAGUUCUACAGUCCGACGAUCAUUCAGCUACUAGUGACUCAACAAAAUCUAAGGGUUCUUGGGGAUCUGGAAAGGAUCAGUAUAGCAGGGAACUGCUUGUGUCCUCCAUCUUUGCAGCUGCUAGUCGCAAGAGGAAGAAGCCAACAGAGGAUUGAGCAUCA
binding signal [enrichment R]: 0.489
--
binder: chr3:107805913:107806014:+|3pUTR|ENSG00000114439|msi1_unk|FALSE|overlapping (ssRNA) RNA: GGGAGUUCUACAGUCCGACGAUCUACAUGGAGAUUUAAGUUUAAGAUGGUUUAUAUAAUAGGUUAUACCUACAUUUAUAUUGUAGAAUAAAUAUUAAAAAGCCUGUUCCAGAGACUCCCAAGCAGCCUGGGCAGGCAGAUGUACAACAGAGGAUUGAGCAUCA
binding signal [enrichment R]: 1.89
